Source: ChEMBL document CHEMBL3352261

The compounds listed here are annotated with their pEC50.
# targetUnderTest: Dual specificity protein kinase TTK (Homo sapiens, UniProt P33981)
# Sequence (P33981 whole entry): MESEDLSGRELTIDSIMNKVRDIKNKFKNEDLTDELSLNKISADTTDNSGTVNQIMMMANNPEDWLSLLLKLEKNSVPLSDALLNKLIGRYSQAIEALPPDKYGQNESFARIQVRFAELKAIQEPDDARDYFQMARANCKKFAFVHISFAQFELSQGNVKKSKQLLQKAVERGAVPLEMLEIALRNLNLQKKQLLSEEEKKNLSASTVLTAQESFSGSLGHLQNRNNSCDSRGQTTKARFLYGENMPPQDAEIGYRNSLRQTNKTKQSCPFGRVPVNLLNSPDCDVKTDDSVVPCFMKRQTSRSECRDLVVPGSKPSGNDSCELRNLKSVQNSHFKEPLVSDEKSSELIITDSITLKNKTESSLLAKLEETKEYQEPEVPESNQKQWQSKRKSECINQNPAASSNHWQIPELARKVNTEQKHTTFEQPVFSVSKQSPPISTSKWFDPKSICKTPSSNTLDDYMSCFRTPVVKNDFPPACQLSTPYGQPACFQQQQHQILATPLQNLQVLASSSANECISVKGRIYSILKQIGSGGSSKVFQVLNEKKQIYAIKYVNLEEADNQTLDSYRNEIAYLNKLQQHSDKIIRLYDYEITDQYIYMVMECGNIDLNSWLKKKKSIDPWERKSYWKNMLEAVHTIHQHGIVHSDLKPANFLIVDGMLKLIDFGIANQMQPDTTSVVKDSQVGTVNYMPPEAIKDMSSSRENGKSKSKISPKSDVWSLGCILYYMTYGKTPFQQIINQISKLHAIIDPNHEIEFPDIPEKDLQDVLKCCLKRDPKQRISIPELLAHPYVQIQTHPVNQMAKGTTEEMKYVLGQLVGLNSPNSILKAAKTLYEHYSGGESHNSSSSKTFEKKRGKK
# assayText: Inhibition of TTK in human HCT116 cells assessed as phosphorylation of histone H3 at Ser10 residue after 4 hrs by immunoassay
By convention, pEC50 is the negative base-10 log of a molar concentration.

compound	testResult
NS(=O)(=O)c1cccc(-c2n[nH]c3ccc(NC(=O)C(c4ccsc4)N4CCCC4)cc23)c1 (racemic)	6.38

Next compound, pEC50 to be filled in.
Using known records, supply pEC50 for CCc1ccccc1C(C(=O)Nc1ccc2[nH]nc(-c3cccc(S(N)(=O)=O)c3)c2c1)N(C)C (racemic)
6.28

###

Recorded measurements of solubility, one per entry
# assayText: Solubility of the compound at pH 7.4
# Format: physicochemical
# measurementConditions: buffer
Give the value in µg/mL but do not write µg/mL after it.

Annotate the compound CCc1ccccc1C(C(=O)Nc1ccc2[nH]nc(-c3cccc(S(N)(=O)=O)c3)c2c1)N(C)C (racemic) with its measured solubility.
1.4

Entry NS(=O)(=O)c1cccc(-c2n[nH]c3ccc(NC(=O)C(c4ccsc4)N4CCCC4)cc23)c1 (racemic) needs its solubility filled in; supply it.
9

###

# targetUnderTest: Dual specificity protein kinase TTK (Homo sapiens, UniProt P33981)
# Sequence (P33981 whole entry): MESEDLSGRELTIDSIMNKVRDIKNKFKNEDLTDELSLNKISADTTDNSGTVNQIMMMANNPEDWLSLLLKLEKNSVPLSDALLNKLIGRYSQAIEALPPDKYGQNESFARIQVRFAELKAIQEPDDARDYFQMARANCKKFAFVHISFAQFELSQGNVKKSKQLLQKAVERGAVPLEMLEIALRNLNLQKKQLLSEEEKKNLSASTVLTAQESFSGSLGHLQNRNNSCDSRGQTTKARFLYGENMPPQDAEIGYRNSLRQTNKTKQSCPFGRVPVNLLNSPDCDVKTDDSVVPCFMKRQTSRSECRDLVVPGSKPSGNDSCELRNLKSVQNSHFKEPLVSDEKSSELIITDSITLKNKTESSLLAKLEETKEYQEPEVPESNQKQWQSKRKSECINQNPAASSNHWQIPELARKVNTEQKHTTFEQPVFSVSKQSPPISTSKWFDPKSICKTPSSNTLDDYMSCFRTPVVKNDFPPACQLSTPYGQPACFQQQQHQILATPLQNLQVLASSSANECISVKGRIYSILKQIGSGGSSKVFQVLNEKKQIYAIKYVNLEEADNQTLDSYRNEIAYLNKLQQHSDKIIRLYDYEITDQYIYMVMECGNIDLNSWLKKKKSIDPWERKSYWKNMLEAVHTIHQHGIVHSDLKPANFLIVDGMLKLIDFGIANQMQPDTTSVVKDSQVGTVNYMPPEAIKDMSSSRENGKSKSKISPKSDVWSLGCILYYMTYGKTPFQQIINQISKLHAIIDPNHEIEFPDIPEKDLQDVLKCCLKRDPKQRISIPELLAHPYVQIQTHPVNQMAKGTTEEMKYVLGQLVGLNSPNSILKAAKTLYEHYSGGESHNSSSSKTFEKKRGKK
# assayText: Inhibition of SUMO-tagged human TTK (1-275 residues) compound pre-incubated for 15 mins prior ATP addition by MBP-based assay
Could you please mark y for values of IC50 below 300 nM and n for values at or above it?

Examples from the recorded data:
molecule	targetUnderTest	className
Cc1cccc(CS(=O)(=O)Nc2ccc3[nH]nc(-c4cccc(S(N)(=O)=O)c4)c3c2)c1	Dual specificity protein kinase TTK (Homo sapiens, UniProt P33981)	n
NS(=O)(=O)c1cccc(-c2n[nH]c3ccc(NC(=O)C(c4ccccc4)N4CCCC4)cc23)c1 (racemic)	Dual specificity protein kinase TTK (Homo sapiens, UniProt P33981)	y
NS(=O)(=O)c1cccc(-c2n[nH]c3ccc(NS(=O)(=O)c4cccs4)cc23)c1	Dual specificity protein kinase TTK (Homo sapiens, UniProt P33981)	n

Threshold test, IC50 < 300 nM: NS(=O)(=O)c1cccc(-c2n[nH]c3ccc(C(=O)NC(c4ccccc4)C4CCCCC4)cc23)c1 (racemic)
y

Does the reported IC50 of the following molecule sit strictly below 300 nM? NS(=O)(=O)c1cccc(-c2n[nH]c3ccc(NC(=O)Cc4ccccc4)cc23)c1
y

API: query returns whether the molecule falls strictly under 300 nM in IC50. Query: NS(=O)(=O)c1cccc(-c2n[nH]c3cccc(-c4c(F)cccc4F)c23)c1
n

# TODO verify IC50 < 300 nM strictly for this molecule: NS(=O)(=O)c1cccc(-c2n[nH]c3ccc(OCc4ccccc4)cc23)c1
n

is_below(IC50, 300 nM) for COc1ccc2[nH]nc(-c3cccc(S(N)(=O)=O)c3)c2c1 ?
n

Does the reported IC50 of CCOC(C(=O)Nc1ccc2[nH]nc(-c3cccc(S(N)(=O)=O)c3)c2c1)c1ccccc1 (racemic) stay below 300 nM?
y
